A collection of compounds and their measured IC50
- Tested on: RS4;11 leukaemia tumour line
- protocol-description: In vitro cytotoxicity (MTT) on RS4;11
- Assay type: cell-based
- condition-description: Homo sapiens; RS4;11 cells, 48 hours exposure
Structures can show the parent of a compound that is named as a salt.

Here's what some known entries look like.
INSERT INTO assay_data (compound, obs_value) VALUES
  ('O=C(c1cc(-c2cc(Cl)ccc2C(=O)N2Cc3ccccc3C[C@H]2CCN2CCOCC2)n2c1CCCC2)N(c1ccc(O)cc1)c1cccc(F)c1 [Example 27, hydrochloride]', '44.1 nM'),
  ('O=C(c1ccc(Cl)cc1-c1cc(C(=O)N(c2ccc(O)cc2)c2ccc3c(c2)CCN3CCN2CCOCC2)c2n1CCCC2)N1CCc2ccccc2C1', '416 nM'),
  ('C[C@@H]1Cc2ccccc2CN1C(=O)c1cc2c(cc1-c1cc(C(=O)N(c3ccc(O)cc3)c3ccc(CN4CCCC(F)(F)C4)cc3)c3ccccn13)OCO2 [Example 30, hydrochloride]', '52.3 nM'),
  ('C[C@@H]1Cc2ccccc2CN1C(=O)c1cc2c(cc1-c1cc(C(=O)N(c3ccc(O)cc3)c3cncc(F)c3)c3ccccn13)OCO2', '22.8 nM'),
  ('C[C@@H]1Cc2ccccc2CN1C(=O)c1ccc(F)cc1-c1cc(C(=O)N(c2ccc(O)cc2)c2cnc3c(ccn3C)c2)c2n1CCCC2', '62.8 nM');

Lab note: next compound to report on.
What the record says about O=C(c1cc(-c2cc3c(cc2C(=O)N2Cc4ccccc4C[C@H]2CCCN2CCOCC2)OCO3)n2c1CCCC2)N(c1ccccc1)c1ccc(O)cc1 [Example 38, hydrochloride] : IC50 is 9.52 nM
